Here, each record is paired with measured RI (resistance index) data.
- Test system: Plasmodium falciparum FCB-2 (chloroquine-resistant) strain
- assay-method-text: In vitro antiplasmodial activity, [3H]hypoxanthine incorporation, FCB-2 strain
- Assay type: cell-based
- condition-description: IC50 FCB-2 (resistant strain)/IC50 NF-54 (sensitive strain)

molecule	RI (resistance index)
CC(=O)OC1C[C@H]2[C@@H]3CCC4=CC(=O)CC[C@]4(C)[C@H]3CC[C@]2(C)[C@H]1[C@H](C)C(=O)CC[C@@H](C)C=O (stereo partly shown)	1.3
CC(=O)[C@@]1(O)CC[C@H]2[C@@H]3CCC4=CC(=O)CC[C@]4(C)[C@H]3CC[C@@]21C [Compound 6, 17-hydroxy-4-pregnene-3,20-dione, reference compound]	1.0
C[C@@H]1CC[C@@]2(OC1)O[C@H]1C[C@H]3[C@@H]4CCC5=CC(O)CC[C@]5(C)[C@H]4CC[C@]3(C)[C@H]1[C@@H]2C (stereo partly drawn) [Compound 13, (25R)-4-Spirosten-3-ol]	0.9
CC(=O)OC[C@H](C)CCC(=O)[C@@H](C)[C@H]1C(OC(C)=O)C[C@H]2[C@@H]3CCC4=CC(=O)CC[C@]4(C)[C@H]3CC[C@]12C (stereo partly shown)	28.8
C[C@H](C(=O)CC[C@@H](C)C=O)[C@H]1C(=O)C[C@H]2[C@@H]3CCC4=CC(=O)CC[C@]4(C)[C@H]3CC[C@]12C	1.3
C[C@@H]1CC[C@@]2(OC1)O[C@H]1C[C@H]3[C@@H]4CC(=O)C5=CC(=O)CC[C@]5(C)[C@H]4CC[C@]3(C)[C@H]1[C@@H]2C [Compound 18, (25R)-4-Spirosten-3,6-dione]	1.2
CC(=O)O[C@H]1CC2C3CCC4=CC(=O)CC[C@]4(C)C3CC[C@]2(C)[C@H]1[C@H](C)C(=O)CC[C@@H](C)CO (stereo partly shown)	0.6
CC1CCC2(OC1)OC1(O)CC3C4CCC56OC5C(=O)CCC6(C)C4CCC3(C)C1C2C (stereo not shown)	1.2
CC(=O)[C@H]1CC[C@H]2[C@@H]3CCC4=CC(=O)CC[C@]4(C)[C@H]3CC[C@]12C [Compound 5, 4-Pregnene-3,20-dione, reference compound]	1.5
C[C@@H]1CC[C@@]2(OC1)O[C@H]1C[C@H]3[C@@H]4CCC5=CC(=O)C=C[C@]5(C)[C@H]4CC[C@]3(C)[C@H]1[C@@H]2C [Compound 12, (25R)-1,4-Spirostadien-3-one]	1.2
C[C@@H]1CC[C@@]2(OC1)O[C@H]1C[C@H]3[C@@H]4CC=C5C=CCC[C@]5(C)[C@H]4CC[C@]3(C)[C@H]1[C@@H]2C [Compound 19, (25R)-3,5-Spirostadiene]	1.2
CC1=CC[C@@]2(C)C(=C1)CC[C@H]1[C@@H]3C[C@@H]4O[C@]5(CC[C@@H](C)CO5)[C@@H](C)[C@@H]4[C@@]3(C)CC[C@@H]12 [Compound 7, (25R)-3-Methyl-spirostan-2,4-diene]	2.0
CC(=O)OC1C[C@H]2[C@@H]3CCC4=CC(O)CC[C@]4(C)[C@H]3CC[C@]2(C)[C@H]1[C@H](C)C(O)CC[C@@H](C)CO (stereo partly shown)	0.9
C[C@@H]1CC[C@@]2(OC1)O[C@H]1C[C@H]3[C@@H]4CCC56OC5C(=O)CC[C@]6(C)[C@H]4CC[C@]3(C)[C@H]1[C@@H]2C (stereo partly drawn) [Compound 10, (25R)-4,5-Epoxy-spirostan-3-one]	0.5
CC(=O)OC1C[C@H]2[C@@H]3CCC4CC(=O)CC[C@]4(C)[C@H]3CC[C@]2(C)[C@H]1[C@H](C)C(=O)CC[C@@H](C)CO (stereo partly shown)	1.5
C[C@@H]1CC[C@@]2(OC1)O[C@H]1C[C@H]3[C@@H]4CC5OC56CC(O)CC[C@]6(C)[C@H]4CC[C@]3(C)[C@H]1[C@@H]2C (stereo partly drawn) [Compound 17, (25R)-5,6-Epoxy-spirostan-3-ol]	2.2
C[C@@H](CO)CCC(=O)[C@@H](C)[C@H]1[C@@H](O)CC2C3CCC4=CC(=O)CC[C@]4(C)C3CC[C@@]21C (stereo partly shown)	0.9
C[C@@H](CI)CCC(=O)[C@@H](C)[C@H]1C(=O)CC2C3CCC4=CC(=O)CC[C@]4(C)C3CC[C@@]21C (stereo partly shown)	1.3
Cc1ccc(S(=O)(=O)NN=C2C=C3CCC4C(CCC5(C)C4CC4OC6(CCC(C)CO6)C(C)C45)C3(C)CC2)cc1 (stereo not shown)	1.1
